- target: pooled human IgG (human IgG1, 2, 3 and 4)
quantity: Enzyme Activity Endpoint Assay: IgG (ng/µL)
Numbers only, in ng/µL.

May I ask what Enzyme Activity Endpoint Assay: IgG has been recorded for PRT-662 (protein) MQITSVWTKGVTPLTPEQFRYNNEDVFHAPYLAHQGWYDITKAFDGKDNLLCGAATAGNMLHWWFDQNKTEIEAYLSKHPEKQKIIFNNQELFDLRAAINTKDSQTNSQLFNYFRDKAFPNLSARQLGVMPDLVLDMFINGYYLNVFKTQSTDVNRPYQDKDKRGGIFDAVFTRGDQTTLLTARHDLKNKGLNDISTLIKQELTEGRALALSHTYANVSISHVINLWGADFNAEGNLEAIYVTDSDANASIGMKKYFVGINASGHVAISAKKIEGENIGAQVLGLFTLSSGKDIWQKLSLEHHHHHH ?
0
